Data provenance: ChEMBL document CHEMBL1137357

biological target: Vitamin D3 receptor (Homo sapiens) (UniProt P11473); experiment: Antagonist activity against 1-alpha,25-dihydroxy vitamin D3-induced HL60 cell differentiation by NBT reduction method relative to TEI-9647; assay type: functional, cell-based; set-up: scale not given: the % may be the effect or the level left; conditions: HL-60
Criterion: Activity strictly under 1000%. Met: 1. Not met: -1.

C=C1C(=O)O[C@H](C[C@@H](C)[C@H]2CC[C@H]3/C(=C/C=C4/C[C@@H](O)C[C@H](O)C4=C)CCC[C@]23C)[C@@H]1C	1
C=C1/C(=C\C=C2/CCC[C@]3(C)[C@@H]([C@H](C)C[C@@H]4OC(=O)C(=C)[C@@H]4CCCC)CC[C@@H]23)C[C@@H](O)[C@H](C)[C@@H]1O	-1
C=C1/C(=C\C=C2/CCC[C@]3(C)[C@@H]([C@H](C)C[C@H]4OC(=O)C(=C)[C@H]4CCC)CC[C@@H]23)C[C@@H](O)[C@H](OCCCO)[C@@H]1O	1
C=C1/C(=C\C=C2/CCC[C@]3(C)[C@@H]([C@H](C)C[C@@H]4OC(=O)C(=C)[C@@H]4C)CC[C@@H]23)C[C@@H](O)[C@H](OCCCO)[C@@H]1O	-1
C=C1C[C@@H](C[C@@H](C)[C@H]2CC[C@H]3/C(=C/C=C4/C[C@@H](O)C[C@H](O)C4=C)CCC[C@]23C)OC1=O	1
C=C1C[C@H](C[C@@H](C)[C@H]2CC[C@H]3/C(=C/C=C4/C[C@@H](O)[C@H](OCCCO)[C@H](O)C4=C)CCC[C@]23C)OC1=O	-1
C=C1C(=O)O[C@@H](C[C@@H](C)[C@H]2CC[C@H]3/C(=C/C=C4/C[C@@H](O)[C@H](OCCCO)[C@H](O)C4=C)CCC[C@]23C)[C@@H]1C	-1
C=C1/C(=C\C=C2/CCC[C@]3(C)[C@@H]([C@H](C)C[C@H]4OC(=O)C(=C)[C@@H]4C)CC[C@@H]23)C[C@@H](O)[C@H](CCCO)[C@@H]1O	1
C=C1C(=O)O[C@@H](C[C@@H](C)[C@H]2CC[C@H]3/C(=C/C=C4/C[C@@H](O)C[C@H](O)C4=C)CCC[C@]23C)[C@@H]1CC	1
C=C1/C(=C\C=C2/CCC[C@]3(C)[C@@H]([C@H](C)C[C@H]4OC(=O)C(=C)[C@@H]4CC(C)C)CC[C@@H]23)C[C@@H](O)C[C@@H]1O	1
C=C1/C(=C\C=C2/CCC[C@]3(C)[C@@H]([C@H](C)C[C@@H]4OC(=O)C(=C)[C@H]4CCC)CC[C@@H]23)C[C@@H](O)[C@H](CCCO)[C@@H]1O	1
C=C1C[C@H](C[C@@H](C)[C@H]2CC[C@H]3/C(=C/C=C4/C[C@@H](O)[C@H](CCCO)[C@H](O)C4=C)CCC[C@]23C)OC1=O	-1
C=C1/C(=C\C=C2/CCC[C@]3(C)[C@@H]([C@H](C)C[C@@H]4OC(=O)C(=C)[C@@H]4CCC)CC[C@@H]23)C[C@@H](O)[C@H](CCCO)[C@@H]1O	-1
C=C1/C(=C\C=C2/CCC[C@]3(C)[C@@H]([C@H](C)C[C@@H]4OC(=O)C(=C)[C@H]4CC(C)C)CC[C@@H]23)C[C@@H](O)[C@H](CCCO)[C@@H]1O	1
C=C1/C(=C\C=C2/CCC[C@]3(C)[C@@H]([C@H](C)C[C@@H]4OC(=O)C(=C)[C@@H]4CCC)CC[C@@H]23)C[C@@H](O)[C@H](OCCCO)[C@@H]1O	-1
C=C1/C(=C\C=C2/CCC[C@]3(C)[C@@H]([C@H](C)C[C@H]4OC(=O)C(=C)[C@H]4CC(C)C)CC[C@@H]23)C[C@@H](O)[C@H](C)[C@@H]1O	1
C=C1/C(=C\C=C2/CCC[C@]3(C)[C@@H]([C@H](C)C[C@@H]4OC(=O)C(=C)[C@@H]4CC(C)C)CC[C@@H]23)C[C@@H](O)[C@H](C)[C@@H]1O	-1
C=C1/C(=C\C=C2/CCC[C@]3(C)[C@@H]([C@H](C)C[C@@H]4OC(=O)C(=C)C4(C)C)CC[C@@H]23)C[C@@H](O)C[C@@H]1O	-1
C=C1C(=O)O[C@H](C[C@@H](C)[C@H]2CC[C@H]3/C(=C/C=C4/C[C@@H](O)[C@H](CCCO)[C@H](O)C4=C)CCC[C@]23C)[C@@H]1C	1
C=C1C(=O)O[C@H](C[C@@H](C)[C@H]2CC[C@H]3/C(=C/C=C4/C[C@@H](O)C[C@H](O)C4=C)CCC[C@]23C)[C@@H]1CC(C)C	1
C=C1C(=O)O[C@@H](C[C@@H](C)[C@H]2CC[C@H]3/C(=C/C=C4/C[C@@H](O)C[C@H](O)C4=C)CCC[C@]23C)[C@@H]1C	1
C=C1/C(=C\C=C2/CCC[C@]3(C)[C@@H]([C@H](C)C[C@H]4OC(=O)C(=C)[C@@H]4CC)CC[C@@H]23)C[C@@H](O)C[C@@H]1O	1
C=C1/C(=C\C=C2/CCC[C@]3(C)[C@@H]([C@H](C)C[C@H]4OC(=O)C(=C)[C@@H]4CCCC)CC[C@@H]23)C[C@@H](O)[C@H](OCCCO)[C@@H]1O	1

###

Target: Vitamin D3 receptor (Homo sapiens) (UniProt P11473)
Sequence (whole entry): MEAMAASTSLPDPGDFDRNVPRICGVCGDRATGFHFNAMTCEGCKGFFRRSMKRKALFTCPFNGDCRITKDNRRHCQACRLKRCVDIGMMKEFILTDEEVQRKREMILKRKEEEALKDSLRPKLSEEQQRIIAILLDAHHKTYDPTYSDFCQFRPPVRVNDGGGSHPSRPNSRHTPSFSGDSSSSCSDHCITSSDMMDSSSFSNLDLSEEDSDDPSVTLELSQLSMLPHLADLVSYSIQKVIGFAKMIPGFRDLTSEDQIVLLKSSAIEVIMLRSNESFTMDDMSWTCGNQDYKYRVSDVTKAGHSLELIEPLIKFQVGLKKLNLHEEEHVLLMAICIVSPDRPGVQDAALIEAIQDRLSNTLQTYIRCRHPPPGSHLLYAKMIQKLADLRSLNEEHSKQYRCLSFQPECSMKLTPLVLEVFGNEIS
Test: Antagonist activity against 1-alpha,25-dihydroxy vitamin D3-induced HL60 cell differentiation by NBT reduction method relative to TEI-9647
Assay type: functional, cell-based
Design: scale not given: the % may be the effect or the level left
Settings: HL-60
Measured endpoint: Activity (%)

C=C1/C(=C\C=C2/CCC[C@]3(C)[C@@H]([C@H](C)C[C@@H]4OC(=O)C(=C)[C@@H]4CCC)CC[C@@H]23)C[C@@H](O)[C@H](C)[C@@H]1O	1540
C=C1C(=O)O[C@H](C[C@@H](C)[C@H]2CC[C@H]3/C(=C/C=C4/C[C@@H](O)[C@H](C)[C@H](O)C4=C)CCC[C@]23C)[C@@H]1C	476
C=C1/C(=C\C=C2/CCC[C@]3(C)[C@@H]([C@H](C)C[C@H]4OC(=O)C(=C)[C@H]4CCCC)CC[C@@H]23)C[C@@H](O)[C@H](OCCCO)[C@@H]1O	37
C=C1/C(=C\C=C2/CCC[C@]3(C)[C@@H]([C@H](C)C[C@@H]4OC(=O)C(=C)[C@@H]4CC)CC[C@@H]23)C[C@@H](O)[C@H](CCCO)[C@@H]1O	442

###

The compounds listed here are annotated with their Activity.
Biological target: UniProt:P11473
Sequence (whole entry): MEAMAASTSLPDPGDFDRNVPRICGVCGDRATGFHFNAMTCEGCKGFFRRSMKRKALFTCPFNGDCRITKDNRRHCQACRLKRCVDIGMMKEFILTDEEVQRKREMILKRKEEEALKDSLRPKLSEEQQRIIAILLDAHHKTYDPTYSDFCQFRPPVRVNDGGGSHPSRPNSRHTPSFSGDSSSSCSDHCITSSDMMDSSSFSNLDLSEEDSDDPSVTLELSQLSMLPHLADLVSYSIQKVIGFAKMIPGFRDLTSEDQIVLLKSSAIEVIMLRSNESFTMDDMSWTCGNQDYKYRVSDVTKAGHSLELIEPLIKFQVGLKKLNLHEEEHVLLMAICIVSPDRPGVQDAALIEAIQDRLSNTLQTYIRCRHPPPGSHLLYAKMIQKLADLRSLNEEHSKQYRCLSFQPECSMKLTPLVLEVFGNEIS
Assay: Antagonist activity against 1-alpha,25-dihydroxy vitamin D3-induced HL60 cell differentiation by NBT reduction method relative to TEI-9647
Type: functional, cell-based
Design: scale not given: the % may be the effect or the level left
Conditions: HL-60
Measured endpoint: Activity (%)

C=C1C[C@@H](C[C@@H](C)[C@H]2CC[C@H]3/C(=C/C=C4/C[C@@H](O)[C@H](OCCCO)[C@H](O)C4=C)CCC[C@]23C)OC1=O	66
C=C1/C(=C\C=C2/CCC[C@]3(C)[C@@H]([C@H](C)C[C@H]4OC(=O)C(=C)[C@@H]4CC(C)C)CC[C@@H]23)C[C@@H](O)[C@H](C)[C@@H]1O	4
C=C1C(=O)O[C@H](C[C@@H](C)[C@H]2CC[C@H]3/C(=C/C=C4/C[C@@H](O)[C@H](OCCCO)[C@H](O)C4=C)CCC[C@]23C)[C@@H]1C	41
C=C1/C(=C\C=C2/CCC[C@]3(C)[C@@H]([C@H](C)C[C@H]4OC(=O)C(=C)[C@@H]4CCC)CC[C@@H]23)C[C@@H](O)[C@H](OCCCO)[C@@H]1O	124
C=C1C(=O)O[C@@H](C[C@@H](C)[C@H]2CC[C@H]3/C(=C/C=C4/C[C@@H](O)C[C@H](O)C4=C)CCC[C@]23C)[C@@H]1CCC	60
